# test-system: T1, WRKY54 DBD (Arabidopsis thaliana, UniProt Q93WU8 133-224)
# T1 sequence: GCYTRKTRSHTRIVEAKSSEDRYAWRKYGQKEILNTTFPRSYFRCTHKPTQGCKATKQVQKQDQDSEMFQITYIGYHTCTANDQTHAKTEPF
# assay-remarks: QCM; text also gives 68 ± 11.73 pM for T13 (inconsistent); QCM: 30 mM HEPES pH 7.5, 0.5 M NaCl, 2 mM TCEP, 25 °C, biotin-dsDNA on avidin; fEMSA: 30 min incubation in the dark, native PAGE 4 °C 120 V 90 min, buffer not stated
# condition-label: protein: recombinant; tags: N-term MBP + thrombin site; C-term 12xHis; label: 5' fluorescein (fEMSA); 5' biotin (QCM)
measure: Kd (pM)
Dear colleague, please return just the value in pM, with no unit written.

Input: Quick check: Kd of T13 (dsDNA) DNA 1: ATTTGTTGACTAG DNA 2: CTAGTCAACAAAT ?
Output: 192

Reference for the values: paper PMC8911475
